# protocol.summary: Volume of distribution at steady state in rat at 10 mg/kg, iv
# Format: ADME, organism-based
# Set-up: dose 10 mg/kg, route intravenous
# test.parameters: in vivo, read-out: Vdss
experimental.endpoint: Vd
Just the number plus its unit, please.

Challenge: Hello, please tell me recorded Vd for this one: CC(=O)N1CCC(n2cc(-c3cnc(N)c(-c4nc5ccccc5o4)c3)cn2)CC1.Cl
Response given: 2.4 L/kg

---

# protocol.summary: AUC in rat at 10 mg/kg, po
# Type: ADME, organism-based
# Design: dose 10 mg/kg, route oral
# test.parameters: plasma
experimental.endpoint: AUC (ng·h/mL)
Write down the numeric answer in ng·h/mL and omit the unit.

Challenge: Hello, please tell me recorded AUC for this one: CC(=O)N1CCC(n2cc(-c3cnc(N)c(-c4nc5ccccc5o4)c3)cn2)CC1.Cl
Response given: 2700

---

# assayed.system: Hepatocyte growth factor receptor (Homo sapiens, UniProt P08581)
# Sequence (P08581 whole entry): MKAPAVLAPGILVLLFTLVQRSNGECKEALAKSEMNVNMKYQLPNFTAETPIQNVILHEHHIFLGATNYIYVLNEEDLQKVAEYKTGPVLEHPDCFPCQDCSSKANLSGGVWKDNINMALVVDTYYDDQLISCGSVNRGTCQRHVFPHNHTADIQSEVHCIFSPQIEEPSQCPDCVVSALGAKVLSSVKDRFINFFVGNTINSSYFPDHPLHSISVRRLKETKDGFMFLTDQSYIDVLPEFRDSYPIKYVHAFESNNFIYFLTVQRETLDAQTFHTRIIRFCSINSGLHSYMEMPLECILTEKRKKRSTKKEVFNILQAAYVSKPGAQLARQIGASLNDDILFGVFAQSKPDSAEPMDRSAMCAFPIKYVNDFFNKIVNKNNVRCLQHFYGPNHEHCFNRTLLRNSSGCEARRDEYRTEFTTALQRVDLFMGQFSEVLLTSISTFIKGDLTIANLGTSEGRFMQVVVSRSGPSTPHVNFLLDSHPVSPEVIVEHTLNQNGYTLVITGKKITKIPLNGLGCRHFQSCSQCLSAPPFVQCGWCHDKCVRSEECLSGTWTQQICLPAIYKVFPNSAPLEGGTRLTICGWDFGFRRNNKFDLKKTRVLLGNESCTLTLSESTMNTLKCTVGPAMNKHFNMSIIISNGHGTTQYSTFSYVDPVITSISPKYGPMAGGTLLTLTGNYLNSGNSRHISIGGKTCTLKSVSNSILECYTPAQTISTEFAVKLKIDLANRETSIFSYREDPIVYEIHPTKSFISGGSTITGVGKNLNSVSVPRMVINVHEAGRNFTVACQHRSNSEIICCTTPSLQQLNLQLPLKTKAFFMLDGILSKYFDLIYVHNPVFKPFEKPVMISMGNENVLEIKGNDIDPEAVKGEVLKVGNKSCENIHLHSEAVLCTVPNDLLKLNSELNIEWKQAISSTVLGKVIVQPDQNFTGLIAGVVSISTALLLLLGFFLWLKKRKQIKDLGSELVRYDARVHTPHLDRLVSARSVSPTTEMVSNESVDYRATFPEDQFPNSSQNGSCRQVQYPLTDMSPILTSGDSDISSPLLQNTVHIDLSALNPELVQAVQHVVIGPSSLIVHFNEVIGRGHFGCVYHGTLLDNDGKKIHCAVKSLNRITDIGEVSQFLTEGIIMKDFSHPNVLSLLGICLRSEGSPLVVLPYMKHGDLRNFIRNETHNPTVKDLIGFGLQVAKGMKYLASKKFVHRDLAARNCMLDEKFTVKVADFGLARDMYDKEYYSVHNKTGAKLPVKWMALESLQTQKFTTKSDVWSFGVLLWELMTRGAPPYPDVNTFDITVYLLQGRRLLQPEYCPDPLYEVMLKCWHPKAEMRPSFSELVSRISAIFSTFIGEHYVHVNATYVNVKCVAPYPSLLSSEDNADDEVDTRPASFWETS
# protocol.summary: Inhibition of recombinant c-MET by HTRF assay
IC50 values by entry
Write down the numeric answer in nM and omit the unit.

Nc1ncc(-c2cnn(C3CCN(C(=O)CO)CC3)c2)cc1-c1nc2ccccc2o1	26
COCC(=O)N1CCC(n2cc(-c3cnc(N)c(-c4nc5ccccc5o4)c3)cn2)CC1	17
CCC(=O)N1CCC(n2cc(-c3cnc(N)c(-c4nc5ccccc5o4)c3)cn2)CC1	7
COC(=O)N1CCC(n2cc(-c3cnc(N)c(-c4nc5ccccc5o4)c3)cn2)CC1	58

Challenge: Hello, please tell me recorded IC50 for this one: Nc1ncc(-c2cnn(C3CCOCC3)c2)cc1-c1nc2ccccc2o1
Response given: 430

---

pIC50 values by entry
# assayed.system: Hepatocyte growth factor receptor (Homo sapiens)
# protocol.summary: Inhibition of recombinant c-MET by HTRF assay
pIC50 here: minus log base 10 of the concentration, concentration in moles per litre.

Here's what some known entries look like.
Nc1ncc(-c2ccncc2)cc1-c1nc2ccccc2o1	5.28
Nc1ncc(-c2cnn(C3CCN(C(=O)c4ccccc4)CC3)c2)cc1-c1nc2ccccc2o1	6.85
Nc1ncc(-c2cnn(C3CCNCC3)c2)cc1-c1nc2ccccc2o1	7.10
CCN(CC)C(=O)N1CCC(n2cc(-c3cnc(N)c(-c4nc5ccccc5o4)c3)cn2)CC1	6.45
CS(=O)(=O)N1CCC(n2cc(-c3cnc(N)c(-c4nc5ccccc5o4)c3)cn2)CC1	6.43
Cn1cc(-c2cnc(N)c(-c3nc4ccccc4o3)c2)cn1	5.68
CN(C)CC(=O)N1CCC(n2cc(-c3cnc(N)c(-c4nc5ccccc5o4)c3)cn2)CC1	7.22
CC(=O)N1CCC(n2cc(-c3cnc(N)c(-c4nc5ccccc5o4)c3)cn2)CC1.Cl	8.52

Continue with the compound presented below.
Challenge: Hello, please tell me recorded pIC50 for this one: Nc1ncc(-c2cnn(CCO)c2)cc1-c1nc2ccccc2o1
Response given: 5.89
